# protocol_text: protein stability index of a GFP-peptide fusion (yeast GPS) (PSI 1-4); higher = more stable; sorted into four equal gates, so the index is relative within each strain
# setup_conditions: ubr1∆

sequence_text | protein stability index
RRWNKLCTLNDSKGSLY [YGL100W/SEH1] | 3.1
VISMFVLPIFTTVFFSR [YML031W/NDC1] | 1.16
SKEFSAYVSGLFEIYRD [YJR042W/NUP85] | 2.31
TRLTAYQELAYRATSLD [YML031W/NDC1] | 3.04
LVSNPHEIYGSMPLEQL [SRB4] | 1.89
TPPAIEHKPVSPDKIGT [SSN2] | 3.17
LLICIGTSLKVAPVSEI [SIR2] | 1.79
EPDREKIKLLTQATSED [RPC19] | 3.28
TFNNQDKGLLPYAIMET [RPO31] | 1.48
EAKDAIIELENINAKME [YIL149C/MLP2] | 2.84
KKEANLFPEQQNKEIKA [RPL6A] | 3.3
TDLRLSTNGLGMCQLYF [SNU114] | 3.08
ICKNCSAILLSETDKRQ [RPO31] | 2.96
IPDMSKNVELGWKPLRY [SNU114] | 3.22
KLSISNAASQQPTPRSA [GAL11] | 2.91
SAIEHTTLKSVTIASEI [RPO21] | 2.16
LTNMMSPMGNAYSMGAQ [PGD1] | 2.68
FELVSDLSYIEFLFESL [ECM29] | 2.87
VFLFDIEKVDRENMICK [RRI2] | 3.29
SNDNLDLISEILKWVQW [MED1] | 3.09
ASVRIKDKFNQIPLHRA [NAS6] | 3.17
AKTELNEVSLAIKKSSM [SMC2] | 2.96
FEEDSDLALPPPPPPPP [PRP8] | 3.23
ARIVRVRSREDRKNRAP [RPS26A] | 2.87
QPKLNPMASSSSFGSES [SWI1] | 2.92
ESKDSIQDLIVKLKQQK [SMC3] | 3.35
IKVENLNDTTEKSKALE [SMC2] | 3.25
SKYLIKQIDIPNFNVEI [ECM29] | 2.39
DIFSNLSSDDLLGKESF [YCS4] | 2.86
HVFQYANRPRLVGRKPA [RPC37] | 2.69

* * *

# protocol_text: protein stability index of a GFP-peptide fusion (yeast GPS) (PSI 1-4); higher = more stable; sorted into four equal gates, so the index is relative within each strain
# setup_conditions: pdr5∆

sequence_text | protein stability index
VGKYDKAIELLEKALQG [SRP72] | 1.66
STNESNKSISDEITEDM [SSN2] | 2.75
QNNLPPNFFLTLISENW [BRR2] | 3.13
RRWNKLCTLNDSKGSLY [YGL100W/SEH1] | 3.24
NKLNFIVDDKQEMIDIL [DIB1] | 3.01
SNAVTQTNIWEENWDDV [SEM1] | 3.46
ARYYRTVAVLPPNWKYE [RPS13] | 2.1

* * *

# protocol_text: protein stability index of a GFP-peptide fusion (yeast GPS) (PSI 1-4); higher = more stable; sorted into four equal gates, so the index is relative within each strain
# setup_conditions: pdr5∆

sequence_text | protein stability index
TAAETFKLFNKYRPETA [RPL8A] | 3
LTGSPNNPLVQKKNFLF [ARP7] | 2.89
AVHVTVRGPKAEEILER [RPL11A] | 2.98
ITNKHQEGLAKFGACVA [RPN2] | 1.97
FEIIFPPTDTNVEESVS [POP5] | 2.68
PVTLAKVIKVLGRTGSR [RPS28A] | 2.59
IEDKENSESTTQGGNVN [RPT5] | 3.31
ELAINLIRFDESITKAM [SMC2] | 2.78
NSNINTLTASPDGTLIA [ASC1] | 2.68
LSKVFSDVLFEFTKINT [YJL039C/NUP192] | 2.5
VLKVDKRFMNTSQNPQR [BRR2] | 3.2
HDADLEVSMNSIFAMGL [RPN1] | 2.69
FVKPGTALDAEGAARGT [DIS3] | 3.4
VSLVAEATSNTNSEDKL [MED4] | 3.03
TYEAIDVPGRELKYELI [RPB2] | 3.13
ITLRTSGELLQGIVRVY [MCD1] | 2.9
LTKAQKYLEQVLDHQRA [RPL17A] | 2.73
ILLQHKEKLTVQDCRYS [POP1] | 2.45
KTCIQGINSPLSSVALR [YJL039C/NUP192] | 1.41
SREVLRYEEFADKVKLG [RPC40] | 3.26
LKWVAVVPDLGHLNGHT [SSN2] | 3.13
GNKKYRALRIETGNFSW [RPS8A] | 3.15
HGGKMKPEIDENGTLLV [RPR2] | 3.14
RSKFGGDFLDFQVHERL [ARP7] | 3.11
TERVVEIGPSPTLAGMA [FAS2] | 2.6
DIWSISKKRQAEKLVPL [YML031W/NDC1] | 2.78
VTEDGTVVTVVSTAKFS [RPL22A] | 2.81
LRDTFIELDQVLNMLYW [RPO21] | 2.51
ISNLTQEQVQDYVNKTN [FAS1] | 2.81
RSISEPSINLDPDNTSF [ESC2] | 3
